target: Pteridine reductase, putative (Trypanosoma brucei); assay: Inhibition of Trypanosoma brucei pteridine reductase 1 at 100 uM
Measured parameter: inhibition

// known answers, use as guide
# Mol, inhibition
records = [
    ("COc1ccccc1-c1nnc(N)[nH]1", "19.8%"),
    ("Nc1nc(NCc2ccc(F)cc2)n[nH]1", "19.3%"),
    ("CC(C)CC(=O)Nc1c[nH]c(=O)[nH]c1=O", "5%"),
    ("Nc1nc(-c2ccccc2Cl)n[nH]1", "9.3%"),
    ("OCCNc1ncnc2[nH]cnc12", "5.9%"),
    ("Nc1nc(Cc2nnc(N)[nH]2)n[nH]1", "11.4%"),
    ("Nc1nc(SCC(=O)NCc2ccco2)n[nH]1", "3.3%"),
    ("Nc1nc2ccc(Cl)cc2[nH]1", "72.3%"),
]

Ask: Lab note: need inhibition for Nc1nnc(-c2ccc(Cl)cc2Cl)[nH]1 on Pteridine reductase, putative (Trypanosoma brucei), anyone have it?
Reply: 18.8%

Ask: Proceed to Nc1nc(-c2ccc3c(c2)CCC3)cs1
Reply: 32.3%

Ask: Proceed to O=c1cc(Nc2ccc(Cl)cc2)[nH]c(=O)[nH]1
Reply: 11.8%

Ask: Proceed to O=C(Nc1ncnc2nc[nH]c12)c1ccccc1
Reply: 4.5%

Ask: Proceed to O=c1[nH]cc(COCc2ccccc2)c(=O)[nH]1
Reply: 5.7%

Ask: Proceed to Nc1nc(CCc2n[nH]c(N)n2)n[nH]1
Reply: 6.9%
